- Assay Comment: Repeat dose plasma pharmacokinetics, IP
- Format: in vivo, SCID Beige mice
- Experimental Context: SCID Beige, mouse, plasma, intraperitoneal; 5 mg/kg IP once daily for 4 weeks, 24 h after the final dose
Parameter Measured: concentration at 24 h (ng/mL)
All answers are understood in ng/mL, so give the number only.

[Q] Fill in the blank: the reported concentration at 24 h of N=c1c2c(-c3ccccc3)c(-c3ccccc3)n(Cc3ccccc3)c2ncn1[C@H]1CC[C@H](O)CC1 is ____.
[A] 48.4

====

- System: PC3M-GFP-PTB cells
- Assay Comment: PNC prevalence / PNC disassembly in PC3M-GFP-PTB cells
- Assay type: cell-based, human
- Experimental Context: Homo sapiens; PC3M-GFP-PTB cells; read-out: IC50 for disruption of PNCs
Parameter Measured: pIC50
When answering, recall that pIC50 equals minus log10 of the concentration in mol/L, and write that number alone.

[Q] Fill in the blank: the reported pIC50 of N=c1c2c(-c3ccccc3)c(-c3ccccc3)n(Cc3ccccc3)c2ncn1[C@H]1CC[C@H](O)CC1 [metarrestin] is ____.
[A] 6.41
